experimental.target: human glucagon receptor (human) (UniProt P47871)
Sequence (P47871 26-477): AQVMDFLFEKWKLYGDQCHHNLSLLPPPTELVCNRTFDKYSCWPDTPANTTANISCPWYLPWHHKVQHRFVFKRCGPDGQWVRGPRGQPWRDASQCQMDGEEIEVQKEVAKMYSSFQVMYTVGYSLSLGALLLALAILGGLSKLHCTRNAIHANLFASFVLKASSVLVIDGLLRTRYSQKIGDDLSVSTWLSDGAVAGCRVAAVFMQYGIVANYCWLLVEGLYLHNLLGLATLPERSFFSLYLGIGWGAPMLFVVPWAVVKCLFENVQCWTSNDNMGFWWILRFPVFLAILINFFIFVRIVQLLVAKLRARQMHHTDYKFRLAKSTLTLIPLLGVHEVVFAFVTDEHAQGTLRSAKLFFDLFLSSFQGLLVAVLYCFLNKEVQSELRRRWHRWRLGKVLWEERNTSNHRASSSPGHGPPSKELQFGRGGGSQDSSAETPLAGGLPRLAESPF
experiment.notes: cell-based or functional assay
measure: cAMP Rel EC50, nM (1% HSA) (nM)
Write it as a number; the unit nM goes unstated.

Consider the following illustrative entries.
binder	cAMP Rel EC50, nM (1% HSA) / nM
YXQGTFTSDXSQXLDKKAQXAFIEYLIEXGESSGAPPPSGE (acylated; synthetic construct; SITE 2: note = 2-Aminoisobutyric Acid; SITE 10: note = 3-(4-Pyridyl)-L-alanine; SITE 13: note = alpha-methyl-leucine; SITE 17: note = Lysine is chemically modified through conjugation of the epsilon-amino group of the Lysine side chain with (2-[2-(2-Amino-ethoxy)-ethoxy]-acetyl)) [Example 227]	937
YXQGTFTSDFSQXLDKKAQXAFIEYLLEGGPSSGAPPPSGS (synthetic construct; SITE 2: note = 2-Aminoisobutyric Acid; SITE 13: note = alpha-methyl-leucine; SITE 17: note = Lysine is chemically modified through conjugation of the epsilon-amino group of the Lysine side chain with (2-[2-(2-Amino-ethoxy)-ethoxy]-acetyl)-(gamma-Glu)-CO-(CH2) 16-CO2H; SITE 20: n) [Example 150]	1920
YXQGTFTSDXSQXLDXKAQXAFIEYLIAGGPSSGEPPPSGSE (Aib, 4Pal, αMeL, Orn, Me4Pal; (γGlu)2-C18 diacid on Lys; synthetic construct; SITE 2: note = 2-Aminoisobutyric Acid; SITE 10: note = 3-(4-Pyridyl)-L-alanine; SITE 13: note = alpha-methyl-leucine; SITE 16: note = L-ornithine; SITE 17: note = Lysine is chemically modified through conjugation of the epsilon-amino group of the Lysine side chain with (gamma-Gl)) [Example 977]	839
YXQGTFTSDFSXXLDKKAQXAFIEYLLEGGPSSGAPPPGGS (not fully specified; free C-terminus (not amidated); synthetic construct; SITE 2: note = 2-Aminoisobutyric Acid; SITE 12: note = L-ornithine; SITE 13: note = alpha-methyl-leucine; SITE 17: note = Lysine is chemically modified through conjugation of the epsilon-amino group of the Lysine side chain with (2-[2-(2-Amino-ethoxy)-ethoxy]-acetyl)-(gamma-Glu)) [Example 196]	620
YXQGTFTSDFSQXLDKKAQXAFIEYLLEXGPSSGAPPPSGS (synthetic construct; SITE 2: note = 2-Aminoisobutyric Acid; SITE 13: note = alpha-methyl-leucine; SITE 17: note = Lysine is chemically modified through conjugation of the epsilon-amino group of the Lysine side chain with (gamma-Glu)2-CO-(CH2)16-CO2H; SITE 20: note = 2-Aminoisobutyric Acid; SITE 29:) [Example 784]	711

Proceeding to the next binder to report its cAMP Rel EC50, nM (1% HSA).
Entry YXQGTFTSDFSRXLDKKAQXAFIEYLLEGGESSGAPPPSGS (synthetic construct; SITE 2: note = 2-Aminoisobutyric Acid; SITE 13: note = alpha-methyl-leucine; SITE 17: note = Lysine is chemically modified through conjugation of the epsilon-amino group of the Lysine side chain with (2-[2-(2-Amino-ethoxy)-ethoxy]-acetyl)2-(gamma-Glu)-CO-(CH2 )16-CO2H; SITE 20:) [Example 149] has what cAMP Rel EC50, nM (1% HSA)?
1420
